Recorded values, source patent US20230174507A1.

Quick reference for pIC50 among some compounds
target: human ACSS2 protein (Homo sapiens, UniProt Q9NR19)
Sequence (Q9NR19 whole entry): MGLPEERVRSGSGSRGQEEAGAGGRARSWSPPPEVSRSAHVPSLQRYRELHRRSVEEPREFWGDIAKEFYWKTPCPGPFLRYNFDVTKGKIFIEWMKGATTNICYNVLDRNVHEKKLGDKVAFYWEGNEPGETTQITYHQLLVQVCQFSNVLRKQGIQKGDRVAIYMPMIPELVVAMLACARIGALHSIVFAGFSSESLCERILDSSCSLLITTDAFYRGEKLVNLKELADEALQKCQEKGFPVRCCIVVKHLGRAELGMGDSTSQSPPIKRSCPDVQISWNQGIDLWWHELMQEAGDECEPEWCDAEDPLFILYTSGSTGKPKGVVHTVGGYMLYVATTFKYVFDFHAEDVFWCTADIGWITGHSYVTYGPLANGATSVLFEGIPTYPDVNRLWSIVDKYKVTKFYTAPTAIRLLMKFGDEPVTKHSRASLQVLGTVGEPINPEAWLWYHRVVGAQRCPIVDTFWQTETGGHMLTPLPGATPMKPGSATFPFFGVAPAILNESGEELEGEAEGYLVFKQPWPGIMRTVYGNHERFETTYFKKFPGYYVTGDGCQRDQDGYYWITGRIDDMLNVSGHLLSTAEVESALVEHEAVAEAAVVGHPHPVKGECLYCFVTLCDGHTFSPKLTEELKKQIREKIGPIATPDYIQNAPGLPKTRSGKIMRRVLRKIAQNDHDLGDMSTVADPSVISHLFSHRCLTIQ
pIC50: −log10 of the molar value.
Observed property: pIC50

compound=COc1ccc(-c2[nH]c(C)c(C(=O)Nc3cccc(C4(C(F)(F)F)CC4)c3)[n+]2[O-])cc1-c1c(C)cccc1C result="< 7.52"
compound=COc1cc(F)c(-c2[nH]c(C)c(C(=O)Nc3cccc(C(F)(F)F)c3)[n+]2[O-])nc1-c1c(F)cccc1F result="7.52 to 9.00"
compound=CCC(F)(F)c1cccc(NC(=O)c2c(C)n(COP(=O)(O)OC(C)(C)C)c(-c3ccc(OC)c(-c4c(C)cccc4C)c3)[n+]2[O-])c1 result="7.52 to 9.00"
compound=COc1ccc(-c2[nH]c(C)c(C(=O)Nc3cccc(-c4cnn(C)n4)c3)[n+]2[O-])cc1-c1c(C)cccc1C result="> 9.00"
compound=CC#Cc1cc(C)c(-c2cc(-c3[nH]c(C)c(C(=O)Nc4cccc(C(F)(F)CC)c4)[n+]3[O-])ccc2OC)c(C)c1 result="7.52 to 9.00"
